experimentalSystem: human RORγ (Homo sapiens)
Construct: from Ser253 to Lys518 for human RORγ; expressed in transfected cells; host or cells: CHO cells (transient co-transfection with pG5-Luc)
Sequence (P51449 253-518): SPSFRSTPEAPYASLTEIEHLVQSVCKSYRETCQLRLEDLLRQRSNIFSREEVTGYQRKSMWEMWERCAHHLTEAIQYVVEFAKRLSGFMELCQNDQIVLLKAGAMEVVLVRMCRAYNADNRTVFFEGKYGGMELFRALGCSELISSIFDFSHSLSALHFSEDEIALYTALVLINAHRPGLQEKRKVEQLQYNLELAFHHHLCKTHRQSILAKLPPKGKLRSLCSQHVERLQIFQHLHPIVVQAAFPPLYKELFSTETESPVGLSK
protocolSummary: In-vitro reporter gene assay for inhibitory activity against RORγ transcription, Test Method B (pFA/hRORγ LBD / pG5-Luc in CHO cells)
Assay type: cell-based
conditionsUsed: luciferase reporter, CHO cells, 2 days
propertyName: EC50 (µM)
Answer format: numeric, µM implied, no suffix.

As a guide, the following entries are already answered.
INSERT INTO assay_data (compound, quantitativeresult) VALUES
  ('CC(C)(C)CCc1ccc([C@]23CCC(C)(C)CC2=CN(C24CC(C(=O)O)(C2)C4)C(=O)N3)cc1Cl (single isomer, unassigned)', 3.95),
  ('CC1C2=CN(C34CCC(C(=O)O)(C3)C4)C(=O)N[C@]2(c2ccc(CCC(C)(C)C)c(Cl)c2)COC1(C)C (single isomer, unassigned) [Example 121]', 0.035),
  ('C[C@@H]1CCC2(c3ccc(CCC(C)(C)C)c(Cl)c3)NC(=O)N(C34CC(C(=O)O)(C3)C4)C=C2[C@@H]1C (single isomer, unassigned)', 4.4);

(Q) Consider the compound CC1(C)CC1COc1ccc(C23CCCCC2=CN(CCC(=O)O)C(=O)N3)cc1Cl (racemic) and give its measured EC50.
(A) 0.751

###

experimentalSystem: mouse RORγ (Mus musculus, UniProt P51450)
Construct: from Ile251 to Lys516 for mouse RORγ; expressed in transfected cells; host or cells: CHO cells (transient co-transfection with pG5-Luc)
Sequence (P51450 251-516): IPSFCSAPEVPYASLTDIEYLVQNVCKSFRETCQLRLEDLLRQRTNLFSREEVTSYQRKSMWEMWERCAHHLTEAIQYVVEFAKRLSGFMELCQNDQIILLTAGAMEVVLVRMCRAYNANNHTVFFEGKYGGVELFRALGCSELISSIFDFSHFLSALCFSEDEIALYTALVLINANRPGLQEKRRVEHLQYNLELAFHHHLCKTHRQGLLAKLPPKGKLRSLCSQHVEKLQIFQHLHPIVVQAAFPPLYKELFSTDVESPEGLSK
protocolSummary: In-vitro reporter gene assay for inhibitory activity against RORγ transcription, Test Method A (GAL4-mRORγ LBD / pG5-Luc in CHO cells)
Format: cell-based
conditionsUsed: luciferase reporter, 2 days
In this section we review reported EC50 values for a set of compounds.
Please respond with the number in µM and leave the unit unwritten.

(Q) Which EC50 value is on record for CC(C)(C)CCc1ccc(C23CCCC(CCOCc4ccccc4)C2=CN(CCC(=O)O)C(=O)N3)cc1Cl (racemic) [Example 43] ?
(A) 0.159

###

Reported EC50 values for the following compounds.
experimentalSystem: mouse RORγ (Mus musculus, UniProt P51450)
Construct: from Ile251 to Lys516 for mouse RORγ; expressed in transfected cells; host or cells: CHO cells (transient co-transfection with pG5-Luc)
protocolSummary: In-vitro reporter gene assay for inhibitory activity against RORγ transcription, Test Method A (GAL4-mRORγ LBD / pG5-Luc in CHO cells)
Format: cell-based
conditionsUsed: luciferase reporter, 2 days
Respond with the bare value in µM.

For orientation, consider the following solved cases.
INSERT INTO results (compound, propertyname, unitssymbol, quantitativeresult) VALUES
  ('COCCC1CCCC2(c3ccc(CCC(C)(C)C)c(Cl)c3)NC(=O)N(CCC(=O)O)C=C12 (racemic)', 'EC50', 'µM', 0.211),
  ('CC(C)(C)CCc1ccc(C23CCC(CO)C2=CN(CCC(=O)O)C(=O)N3)cc1Cl (single isomer, unassigned)', 'EC50', 'µM', 0.103),
  ('CC1CCC[C@@]2(c3ccc(CCC(C)(C)C)c(Cl)c3)NC(=O)N(C34CC(C(=O)O)(C3)C4)C=C12 (single isomer, unassigned)', 'EC50', 'µM', 0.022),
  ('CC(C)(C)CCc1ccc(C23CCCC2=CN(CCC(=O)O)C(=O)N3)cc1Cl (racemic)', 'EC50', 'µM', 0.126),
  ('CC(C)(C)CCc1ccc(C23CCC(CCO)C2=CN(CCC(=O)O)C(=O)N3)cc1Cl (single isomer, unassigned)', 'EC50', 'µM', 0.105);

(Q) Provide value of EC50 for this record tested with mouse RORγ (Mus musculus, UniProt P51450): O=C(O)CCN1C=C2CCCCC2(c2ccc(OCCC3CCC3)c(Cl)c2)NC1=O (racemic)
(A) 0.099

(Q) Here is the next compound: CC(C)(C)CCc1ccc(C23COCCC2=CN(CCC(=O)O)C(=O)N3)cc1Cl (racemic)
(A) 0.02

(Q) Also check CC(C)(C)CCc1ccc(C23COC(C)(C)C2=CN(c2ccc(C(=O)O)cc2)C(=O)N3)cc1Cl (single isomer, unassigned) [Example 8]
(A) 0.381

(Q) Try this compound next: CC(C)(C)CCc1ccc(C23CCCC(CO)C2=CN(CCC(=O)O)C(=O)N3)cc1Cl (racemic)
(A) 0.058

(Q) Also check CC(C)(C)CCc1ccc(C23CC(C)(C)CCC2=CN(CCC(=O)O)C(=O)N3)cc1Cl (racemic)
(A) 0.052
